- Test system: Escherichiacoli JUHL
- measurement-description: In vitro antibacterial activity, agar dilution MIC
- Type: cell-based
- test-settings: code QQ: Escherichiacoli JUHL; BHI agar, 35-37° C., 20 to 24 hours; unit assumed
property: Antibacterial Activity (MIC) (µg/mL)
Supply the numeric figure in µg/mL, leaving out any unit text.

Using known records, supply Antibacterial Activity (MIC) for CCC1OC(=O)C(C)C(OC2CC(C)(OC)C(O)C(C)O2)C(C)C(OC2OC(C)CC(N(C)C)C2O)C(C)(OCC=Cc2cnc3ccccc3c2)CC(C)CN(C)C(C)C(O)C1(C)O (centres unmarked) [Example 7]
100

---

- Test system: Nocardia Asteroides ATCC 99700
- measurement-description: In vitro antibacterial activity, agar dilution MIC
- Format: cell-based
- test-settings: code VV: Nocardia Asteroides ATCC 99700; BHI agar, 35-37° C., 20 to 24 hours; unit assumed
Below, each of the compounds is paired with its reported Antibacterial Activity (MIC) value.
Supply the numeric figure in µg/mL, leaving out any unit text.

Illustrative cases are given below, each with its answer.
compound	reading-unit	Antibacterial Activity (MIC)
CCC1OC(=O)C(C)C(=O)C(C)C(OC2OC(C)CC(N(C)C)C2O)C(C)(OCC=Cc2cnc3ccccc3c2)CC(C)CN(C)C(C)C2OC(=O)OC12C (stereo not shown)	µg/mL	0.1
C=CCOC1(C)CC(C)CN(C)C(C)C(O)C(C)(O)C(CC)OC(=O)C(C)C(O)C(C)C1OC1OC(C)CC(N(C)C)C1O (stereo not shown)	µg/mL	0.05
CCC1OC(=O)C(C)C(OC2CC(C)(OC)C(O)C(C)O2)C(C)C(OC2OC(C)CC(N(C)C)C2O)C(C)(OCC=Cc2cnc3ccccc3c2)CC(C)CN(C)C(C)C(O)C1(C)O (stereo not shown)	µg/mL	0.05
C=CCOC1(C)CC(C)CN(C)C(C)C(O)C(C)(O)C(CC)OC(=O)C(C)C(OC2CC(C)(OC)C(O)C(C)O2)C(C)C1OC1OC(C)CC(N(C)C)C1O (stereo not shown)	µg/mL	0.1
CC[C@H]1OC(=O)[C@H](C)[C@@H](O[C@H]2C[C@@](C)(OC)[C@@H](O)[C@H](C)O2)[C@H](C)[C@@H](O[C@@H]2O[C@H](C)C[C@H](N(C)C)[C@H]2O)[C@](C)(O)C[C@@H](C)C(=O)[C@H](C)[C@@H](O)[C@]1(C)O [Ery. A, Erythromycin A, reference compound]	µg/mL	0.1

Using known records, supply Antibacterial Activity (MIC) for C=CCOC1(C)CC(C)CNC(C)C(O)C(C)(O)C(CC)OC(=O)C(C)C(OC2CC(C)(OC)C(O)C(C)O2)C(C)C1OC1OC(C)CC(N(C)C)C1O (stereo not shown)
0.1

Using known records, supply Antibacterial Activity (MIC) for CCC1OC(=O)C(C)C(=O)C(C)C(OC2OC(C)CC(N(C)C)C2O)C(C)(OCC=Cc2cnc3ccccc3c2)CC(C)CN(C)C(C)C(O)C1(C)O (stereo not shown)
0.1

---

- Tested on: Escherichiacoli SS
- measurement-description: In vitro antibacterial activity, agar dilution MIC
- Format: cell-based
- test-settings: code RR: Escherichiacoli SS; BHI agar, 35-37° C., 20 to 24 hours; unit assumed
property: Antibacterial Activity (MIC) (µg/mL)
Supply the numeric figure in µg/mL, leaving out any unit text.

Using known records, supply Antibacterial Activity (MIC) for CCC1OC(=O)C(C)C(=O)C(C)C(OC2OC(C)CC(N(C)C)C2O)C(C)(OCC=Cc2cnc3ccccc3c2)CC(C)CN(C)C(C)C(O)C1(C)O (centres unmarked) [Example 5]
0.78

Using known records, supply Antibacterial Activity (MIC) for CC[C@H]1OC(=O)[C@H](C)[C@@H](O[C@H]2C[C@@](C)(OC)[C@@H](O)[C@H](C)O2)[C@H](C)[C@@H](O[C@@H]2O[C@H](C)C[C@H](N(C)C)[C@H]2O)[C@](C)(O)C[C@@H](C)C(=O)[C@H](C)[C@@H](O)[C@]1(C)O [Ery. A, Erythromycin A, reference compound]
0.78

---

- Test system: Streptococcus pyogenes PIU 2548
- measurement-description: In vitro antibacterial activity, agar dilution MIC
- Format: cell-based
- test-settings: code NN: Streptococcus pyogenes PIU 2548; BHI agar, 35-37° C., 20 to 24 hours; unit assumed
Below, each of the compounds is paired with its reported Antibacterial Activity (MIC) value.
Supply the numeric figure in µg/mL, leaving out any unit text.

compound	target-entity	reading-unit	Antibacterial Activity (MIC)
CC[C@H]1OC(=O)[C@H](C)[C@@H](O[C@H]2C[C@@](C)(OC)[C@@H](O)[C@H](C)O2)[C@H](C)[C@@H](O[C@@H]2O[C@H](C)C[C@H](N(C)C)[C@H]2O)[C@](C)(O)C[C@@H](C)C(=O)[C@H](C)[C@@H](O)[C@]1(C)O [Ery. A, Erythromycin A, reference compound]	Streptococcus pyogenes PIU 2548	µg/mL	6.2

Alright, here's another compound for you.
Using known records, supply Antibacterial Activity (MIC) for C=CCOC1(C)CC(C)CN(C)C(C)C(O)C(C)(O)C(CC)OC(=O)C(C)C(O)C(C)C1OC1OC(C)CC(N(C)C)C1O (centres unmarked) [Example 4]
6.2

---

- System: Escherichiacoli SS
- measurement-description: In vitro antibacterial activity, agar dilution MIC
- Format: cell-based
- test-settings: code RR: Escherichiacoli SS; BHI agar, 35-37° C., 20 to 24 hours; unit assumed
Below, each of the compounds is paired with its reported Antibacterial Activity (MIC) value.
Supply the numeric figure in µg/mL, leaving out any unit text.

Illustrative cases are given below, each with its answer.
compound	Antibacterial Activity (MIC) [µg/mL]
C=CCOC1(C)CC(C)CNC(C)C(O)C(C)(O)C(CC)OC(=O)C(C)C(OC2CC(C)(OC)C(O)C(C)O2)C(C)C1OC1OC(C)CC(N(C)C)C1O (centres unmarked)	0.78
CCC1OC(=O)C(C)C(=O)C(C)C(OC2OC(C)CC(N(C)C)C2O)C(C)(OCC=Cc2cnc3ccccc3c2)CC(C)CN(C)C(C)C2OC(=O)OC12C (centres unmarked)	0.78
C=CCOC1(C)CC(C)CN(C)C(C)C(O)C(C)(O)C(CC)OC(=O)C(C)C(O)C(C)C1OC1OC(C)CC(N(C)C)C1O (centres unmarked)	0.78
CCC1OC(=O)C(C)C(OC2CC(C)(OC)C(O)C(C)O2)C(C)C(OC2OC(C)CC(N(C)C)C2O)C(C)(OCC=Cc2cnc3ccccc3c2)CC(C)CN(C)C(C)C(O)C1(C)O (centres unmarked)	0.39

Alright, here's another compound for you.
Report Antibacterial Activity (MIC) from Escherichiacoli SS testing of C=CCOC1(C)CC(C)CN(C)C(C)C(O)C(C)(O)C(CC)OC(=O)C(C)C(OC2CC(C)(OC)C(O)C(C)O2)C(C)C1OC1OC(C)CC(N(C)C)C1O (centres unmarked)
0.39

---

Below, each of the molecules is paired with its reported Antibacterial Activity (MIC) value.
- Tested on: Streptococcus pyogenes PIU 2548
- measurement-description: In vitro antibacterial activity, agar dilution MIC
- Type: cell-based
- test-settings: code NN: Streptococcus pyogenes PIU 2548; BHI agar, 35-37° C., 20 to 24 hours; unit assumed
Supply the numeric figure in µg/mL, leaving out any unit text.

Illustrative cases are given below, each with its answer.
molecule	reading-unit	Antibacterial Activity (MIC)
CCC1OC(=O)C(C)C(OC2CC(C)(OC)C(O)C(C)O2)C(C)C(OC2OC(C)CC(N(C)C)C2O)C(C)(OCC=Cc2cnc3ccccc3c2)CC(C)CN(C)C(C)C(O)C1(C)O (centres unmarked)	µg/mL	6.2
CCC1OC(=O)C(C)C(=O)C(C)C(OC2OC(C)CC(N(C)C)C2O)C(C)(OCC=Cc2cnc3ccccc3c2)CC(C)CN(C)C(C)C2OC(=O)OC12C (centres unmarked)	µg/mL	6.2
C=CCOC1(C)CC(C)CN(C)C(C)C(O)C(C)(O)C(CC)OC(=O)C(C)C(OC2CC(C)(OC)C(O)C(C)O2)C(C)C1OC1OC(C)CC(N(C)C)C1O (centres unmarked)	µg/mL	6.2
C=CCOC1(C)CC(C)CNC(C)C(O)C(C)(O)C(CC)OC(=O)C(C)C(OC2CC(C)(OC)C(O)C(C)O2)C(C)C1OC1OC(C)CC(N(C)C)C1O (centres unmarked)	µg/mL	6.2

Alright, here's another molecule for you.
Using known records, supply Antibacterial Activity (MIC) for CCC1OC(=O)C(C)C(=O)C(C)C(OC2OC(C)CC(N(C)C)C2O)C(C)(OCC=Cc2cnc3ccccc3c2)CC(C)CN(C)C(C)C(O)C1(C)O (centres unmarked)
6.2

---

Below, each of the compounds is paired with its reported Antibacterial Activity (MIC) value.
- Test system: Streptococcus Pneumonia 5649
- measurement-description: In vitro antibacterial activity, agar dilution MIC
- Type: cell-based
- test-settings: code ZA: Streptococcus Pneumonia 5649; BHI agar, 35-37° C., 20 to 24 hours; unit assumed
Supply the numeric figure in mg/L, leaving out any unit text.

Illustrative cases are given below, each with its answer.
compound	target-entity	Antibacterial Activity (MIC), mg/L
CCC1OC(=O)C(C)C(=O)C(C)C(OC2OC(C)CC(N(C)C)C2O)C(C)(OCC=Cc2cnc3ccccc3c2)CC(C)CN(C)C(C)C(O)C1(C)O (stereo not shown) [Example 5]	Streptococcus Pneumonia 5649	8
C=CCOC1(C)CC(C)CNC(C)C(O)C(C)(O)C(CC)OC(=O)C(C)C(OC2CC(C)(OC)C(O)C(C)O2)C(C)C1OC1OC(C)CC(N(C)C)C1O (stereo not shown) [Example 2]	Streptococcus Pneumonia 5649	16
CCC1OC(=O)C(C)C(OC2CC(C)(OC)C(O)C(C)O2)C(C)C(OC2OC(C)CC(N(C)C)C2O)C(C)(OCC=Cc2cnc3ccccc3c2)CC(C)CN(C)C(C)C(O)C1(C)O (stereo not shown) [Example 7]	Streptococcus Pneumonia 5649	16
CC[C@H]1OC(=O)[C@H](C)[C@@H](O[C@H]2C[C@@](C)(OC)[C@@H](O)[C@H](C)O2)[C@H](C)[C@@H](O[C@@H]2O[C@H](C)C[C@H](N(C)C)[C@H]2O)[C@](C)(O)C[C@@H](C)C(=O)[C@H](C)[C@@H](O)[C@]1(C)O [Ery. A, Erythromycin A, reference compound]	Streptococcus Pneumonia 5649	16
CCC1OC(=O)C(C)C(=O)C(C)C(OC2OC(C)CC(N(C)C)C2O)C(C)(OCC=Cc2cnc3ccccc3c2)CC(C)CN(C)C(C)C2OC(=O)OC12C (stereo not shown) [Example 6]	Streptococcus Pneumonia 5649	8

Using known records, supply Antibacterial Activity (MIC) for C=CCOC1(C)CC(C)CN(C)C(C)C(O)C(C)(O)C(CC)OC(=O)C(C)C(OC2CC(C)(OC)C(O)C(C)O2)C(C)C1OC1OC(C)CC(N(C)C)C1O (stereo not shown) [Example 3]
8

Using known records, supply Antibacterial Activity (MIC) for C=CCOC1(C)CC(C)CN(C)C(C)C(O)C(C)(O)C(CC)OC(=O)C(C)C(O)C(C)C1OC1OC(C)CC(N(C)C)C1O (stereo not shown) [Example 4]
8
